organism: Danio rerio; test: Antiinflammatory activity in transgenic zebrafish larvae harboring Fli-1 gene assessed as LPS-stimulated leukocyte migration to injury zone of tail transected larvae at 30 uM after 20 to 22 hrs by microscopy; type: functional
Rule: Ratio below 0.9 gives label 1. Equal to or above 0.9 gives label 0.

Past entries and their recorded results:
[Q] Hello, is Ratio of the following compound strictly smaller than 0.9? `O=c1c2cc([N+](=O)[O-])ccc2[nH]n1Cc1ccccc1`
[A] label 1

[Q] Now try COc1ccc2c(c1)c(CC(=O)O)c(C)n2C(=O)c1ccc(Cl)cc1 [INDOMETHACIN] .
[A] label 1

More entries:
[Q] Consider `Cn1c2ccc([N+](=O)[O-])cc2c(=O)n1Cc1ccccc1` . Does its Ratio lie strictly below 0.9?
[A] label 1

[Q] Next: `O=C(NN1Cc2ccccc2C1)c1cc([N+](=O)[O-])ccc1Cl`
[A] label 0

[Q] Could you do the same for `COc1nn(Cc2ccccc2F)c2ccc([N+](=O)[O-])cc12` , please?
[A] label 1
